target: Alpha-glucosidase (Saccharomyces cerevisiae S288c, UniProt P53341+P38158+P07265); test: Inhibition of Saccharomyces cerevisiae alpha-glucosidase using p-nitrophenyl-alpha-D-glucopyranoside as substrate preincubated with substrate for 5 mins followed by enzyme addition and measured after 15 mins; type: protein assay
Measured quantity: IC50 (µM)
Answers are plain numbers, in µM.

Count: 7. Required value per item: IC50.
1. COc1ccccc1Sc1ncc(C(=O)O)cc1N
2. Nc1cc(C(=O)O)cnc1Sc1ccccc1C(F)(F)F
3. Cc1ccc(Oc2ncc(C(=O)O)cc2N)cc1
4. COc1cccc(Sc2ncc(C(=O)O)cc2N)c1
5. O=C(O)c1ccc(Oc2ccc(Br)cc2)nc1
6. OCCN1C[C@H](O)[C@@H](O)[C@H](O)[C@H]1CO
7. COc1cccc(Oc2ncc(C(=O)O)cc2N)c1

[206.5, 155.1, 353.2, 348.5, 394.6, 34.5, 565.8]

---

Target: Alpha-amylase (Sus scrofa domesticus) (UniProt Q7M328)
Sequence (whole entry): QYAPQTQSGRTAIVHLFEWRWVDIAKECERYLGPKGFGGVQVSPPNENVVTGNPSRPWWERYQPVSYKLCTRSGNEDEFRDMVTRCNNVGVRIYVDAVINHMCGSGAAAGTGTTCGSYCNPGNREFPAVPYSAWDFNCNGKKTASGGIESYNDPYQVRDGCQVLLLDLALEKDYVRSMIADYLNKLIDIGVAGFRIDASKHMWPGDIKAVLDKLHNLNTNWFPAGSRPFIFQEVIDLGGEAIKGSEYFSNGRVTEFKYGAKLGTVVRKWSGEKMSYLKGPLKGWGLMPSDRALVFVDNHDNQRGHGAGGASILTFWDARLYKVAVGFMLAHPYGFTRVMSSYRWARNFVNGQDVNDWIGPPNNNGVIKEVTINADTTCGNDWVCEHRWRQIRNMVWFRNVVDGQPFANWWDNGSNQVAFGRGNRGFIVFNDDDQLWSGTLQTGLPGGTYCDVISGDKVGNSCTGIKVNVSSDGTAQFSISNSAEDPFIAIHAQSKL
Experiment: Inhibition of porcine pancreas alpha-amylase assessed as enzyme inactivation using starch as substrate preincubated for 10 mins followed by substrate addition and measured after 10 mins by DNS reagent based colorimetric assay relative to control
Set-up: concentration or dose not given beside the values
Conditions: time 20.0 min
Measured quantity: inhibition (%)
Answers are plain numbers, in %.

Molecule	Reading
O=C(O)c1ccc(Oc2ccc(Br)cc2Br)nc1	73.2

Count: 7. Required value per item: inhibition.
1. Nc1cc(C(=O)O)cnc1Oc1ccc(Br)cc1Br
2. COc1ncc(C(=O)O)cc1N
3. COc1cccc(Oc2ncc(C(=O)O)cc2N)c1
4. CCOc1ccc(C(=O)O)cn1
5. CCC(=O)c1ccc(Oc2ncc(C(=O)O)cc2N)cc1
6. Nc1cc(C(=O)O)cnc1Sc1ccccc1C(F)(F)F
7. CC(=O)c1ccc(Oc2ncc(C(=O)O)cc2N)cc1

1. 53.1
2. 80.3
3. 75.5
4. 69.4
5. 52.3
6. 53.5
7. 50.6

Count: 3. Required value per item: inhibition.
1. Nc1cc(C(=O)O)cnc1Oc1ccc(Br)cc1
2. COc1cccc(Sc2ncc(C(=O)O)cc2N)c1
3. COc1cccc(Sc2ccc(C(=O)O)cn2)c1

1: 81.3; 2: 71.5; 3: 80.7

Count: 3. Required value per item: inhibition.
1. CCc1ccccc1Oc1ncc(C(=O)O)cc1N
2. C[C@H]1O[C@H](O[C@H]2[C@H](O)[C@@H](O)[C@@H](O[C@H]3[C@H](O)[C@@H](O)C(O)O[C@@H]3CO)O[C@@H]2CO)[C@H](O)[C@@H](O)[C@@H]1N[C@H]1C=C(CO)[C@@H](O)[C@H](O)[C@H]1O (stereo not given in full)
3. O=C(O)c1ccc(Oc2ccc(Br)cc2)nc1

1: 54.9; 2: 53.5; 3: 49.1

---

target: Alpha-glucosidase (Saccharomyces cerevisiae S288c) (UniProt P53341+P38158+P07265); experiment: Inhibition of Saccharomyces cerevisiae alpha-glucosidase assessed as enzyme inactivation using p-nitrophenyl-alpha-D-glucopyranoside as substrate preincubated with substrate for 5 mins followed by enzyme addition and measured after 15 mins relative to control; assay type: protein assay; set-up: concentration or dose not given beside the values; settings: time 20.0 min
Classes by inhibition: lower band: < 30%; central band: ≥ 30% and < 40%; upper band: ≥ 40%

These solved cases illustrate the format of a correct answer.
Compound	Answer label
CCc1ccccc1Oc1ncc(C(=O)O)cc1N	upper band
C[C@H]1O[C@H](O[C@H]2[C@H](O)[C@@H](O)[C@@H](O[C@H]3[C@H](O)[C@@H](O)C(O)O[C@@H]3CO)O[C@@H]2CO)[C@H](O)[C@@H](O)[C@@H]1N[C@H]1C=C(CO)[C@@H](O)[C@H](O)[C@H]1O (some centres undefined)	upper band
Nc1cc(C(=O)O)cnc1Oc1ccc(Cl)cc1	lower band
CC(=O)c1ccc(Oc2ncc(C(=O)O)cc2N)cc1	central band
COc1ccccc1Oc1ncc(C(=O)O)cc1N	upper band
COc1ncc(C(=O)O)cc1N	lower band
CCOc1ccc(C(=O)O)cn1	lower band
Cc1ccc(Oc2ncc(C(=O)O)cc2N)cc1	lower band
COc1cccc(Sc2ccc(C(=O)O)cn2)c1	central band
COc1ccc(C(=O)O)cn1	lower band

Bin this entry: O=C(O)c1ccc(Oc2ccc(Br)cc2)nc1
central band

Bin this entry: COc1cccc(Oc2ncc(C(=O)O)cc2N)c1
upper band

Bin this entry: Nc1cc(C(=O)O)cnc1Oc1ccc(Br)cc1
central band

Bin this entry: OCC(CO)N[C@H]1C[C@](O)(CO)[C@@H](O)[C@H](O)[C@H]1O
central band

Bin this entry: OCCN1C[C@H](O)[C@@H](O)[C@H](O)[C@H]1CO
upper band

Bin this entry: COc1ccccc1Sc1ncc(C(=O)O)cc1N
upper band

Bin this entry: Nc1cc(C(=O)O)cnc1Sc1ccccc1C(F)(F)F
upper band

Bin this entry: Nc1cc(C(=O)O)cnc1Oc1ccc(Br)cc1Br
upper band

Bin this entry: COc1cccc(Sc2ncc(C(=O)O)cc2N)c1
central band

---

Consider the following compounds; for each one, report its pIC50.
Biological target: Alpha-amylase (Sus scrofa domesticus, UniProt Q7M328)
Sequence (Q7M328 whole entry): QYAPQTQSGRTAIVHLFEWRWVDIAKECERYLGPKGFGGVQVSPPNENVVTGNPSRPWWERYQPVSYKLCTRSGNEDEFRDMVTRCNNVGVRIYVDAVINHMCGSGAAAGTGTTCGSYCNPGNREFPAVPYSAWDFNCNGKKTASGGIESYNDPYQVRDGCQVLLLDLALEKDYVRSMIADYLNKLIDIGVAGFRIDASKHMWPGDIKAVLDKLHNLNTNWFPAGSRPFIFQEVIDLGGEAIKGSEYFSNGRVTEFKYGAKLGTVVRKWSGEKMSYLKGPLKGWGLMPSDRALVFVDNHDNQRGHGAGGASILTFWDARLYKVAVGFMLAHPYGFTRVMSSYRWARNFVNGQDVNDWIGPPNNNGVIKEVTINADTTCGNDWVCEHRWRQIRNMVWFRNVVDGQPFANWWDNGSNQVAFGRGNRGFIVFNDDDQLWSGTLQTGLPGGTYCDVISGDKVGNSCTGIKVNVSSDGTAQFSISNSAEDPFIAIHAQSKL
Answers are plain numbers, as −log10 of the molar value.

Molecule smiles	pIC50
Nc1cc(C(=O)O)cnc1Oc1ccc(Cl)cc1	3.44
CCc1ccccc1Oc1ncc(C(=O)O)cc1N	3.78
Cc1ccc(Oc2ncc(C(=O)O)cc2N)cc1	3.36

Count: 7. Required value per item: pIC50.
1. COc1cccc(Sc2ccc(C(=O)O)cn2)c1
2. O=C(O)c1ccc(Oc2ccc(Br)cc2)nc1
3. COc1ccc(C(=O)O)cn1
4. CC(=O)c1ccc(Oc2ccc(C(=O)O)cn2)cc1
5. CCOc1ccc(C(=O)O)cn1
6. CC(=O)c1ccc(Oc2ncc(C(=O)O)cc2N)cc1
7. O=C(O)c1ccc(Oc2ccc(Br)cc2Br)nc1

1: 3.62; 2: 3.96; 3: 3.28; 4: 4.69; 5: 3.63; 6: 3.42; 7: 3.75

Count: 2. Required value per item: pIC50.
1. COc1ccccc1Sc1ncc(C(=O)O)cc1N
2. COc1ccccc1Oc1ncc(C(=O)O)cc1N

1. 3.18
2. 3.79

---

Biological target: Alpha-amylase (Sus scrofa domesticus)
Sequence (Q7M328 whole entry): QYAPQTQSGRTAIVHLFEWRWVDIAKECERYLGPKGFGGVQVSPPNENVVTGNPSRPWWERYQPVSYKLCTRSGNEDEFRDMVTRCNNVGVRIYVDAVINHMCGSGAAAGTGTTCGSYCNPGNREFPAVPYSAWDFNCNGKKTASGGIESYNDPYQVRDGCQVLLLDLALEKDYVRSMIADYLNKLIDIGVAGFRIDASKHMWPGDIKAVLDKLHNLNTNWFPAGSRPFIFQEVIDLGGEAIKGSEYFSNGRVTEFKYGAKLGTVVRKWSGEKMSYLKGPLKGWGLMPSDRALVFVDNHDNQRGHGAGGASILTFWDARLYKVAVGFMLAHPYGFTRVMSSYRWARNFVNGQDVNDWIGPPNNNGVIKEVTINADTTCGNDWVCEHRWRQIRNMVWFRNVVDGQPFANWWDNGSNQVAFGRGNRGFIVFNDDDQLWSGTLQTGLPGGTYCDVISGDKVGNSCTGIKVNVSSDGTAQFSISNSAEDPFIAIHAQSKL
Measured quantity: pKi
Give bare numbers, as −log10 of the molar value.

Identify measured pKi corresponding to CC(=O)c1ccc(Oc2ccc(C(=O)O)cn2)cc1
4.39
